# ASSAY_SYSTEM: c-Src SH2;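 also: peptide library displayed on the E. coli surface as eCPX fusions, selected cells deep-sequenced, score is each peptide's frequency after selection divided by its frequency in the input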
# EXPERIMENT: SH2 binding enrichment of the phosphorylated peptide, bacterial display (enrichment ratio); higher = better substrate or ligand; peptides without Tyr show the background
The following sequences are listed with their measured SH2 binding enrichment values.
Give the value as a plain number.

Examples from the recorded data:
| SEQUENCE_CHAIN | SH2 binding enrichment |
| --- | --- |
| NTGLDYIKFTW [HRH1_Y386] | 0.475 |
| ADYYDYGRGLS [KHDRBS3_Y304_H306R] | 0.564 |
| LASLIYNFILF [AQP6_Y231_V234I] | 1.02 |
| ESMQSYDLDFP [UNC13B_Y243_D238E_YF] | 0.648 |
| LWQSIYNLDAE [TNNT2_Y251_E254D] | 0.456 |
| AVRYIYTIDGS [DCX_Y105_G100A] | 0.76 |
| KDYETYQSFQN [CTNND2_Y1157_P1159S] | 0.533 |
| RPSRWYQFRVA [ANOS1_Y259] | 0.541 |

## Input Under c-Src SH2: SH2 binding enrichment value of GDYYRYLAEVA [YWHAG_Y133] ?
## Output 0.569

## Input Under c-Src SH2: SH2 binding enrichment value of KDQGGYAMHQD [MAPT_Y29_T30A] ?
## Output 0.485

## Input Under c-Src SH2: SH2 binding enrichment value of CPSLPYSPVSS [CAMKK2_Y128] ?
## Output 0.712

## Input Under c-Src SH2: SH2 binding enrichment value of SIIKDYFHRGT [GATM_Y203_A208T] ?
## Output 0.469

## Input Under c-Src SH2: SH2 binding enrichment value of RGYRQDAYDGK [HLA-A_Y140] ?
## Output 0.517

----------
# ASSAY_SYSTEM: EPHB2 (UniProt P29323)
# Sequence (P29323 whole entry, looked up): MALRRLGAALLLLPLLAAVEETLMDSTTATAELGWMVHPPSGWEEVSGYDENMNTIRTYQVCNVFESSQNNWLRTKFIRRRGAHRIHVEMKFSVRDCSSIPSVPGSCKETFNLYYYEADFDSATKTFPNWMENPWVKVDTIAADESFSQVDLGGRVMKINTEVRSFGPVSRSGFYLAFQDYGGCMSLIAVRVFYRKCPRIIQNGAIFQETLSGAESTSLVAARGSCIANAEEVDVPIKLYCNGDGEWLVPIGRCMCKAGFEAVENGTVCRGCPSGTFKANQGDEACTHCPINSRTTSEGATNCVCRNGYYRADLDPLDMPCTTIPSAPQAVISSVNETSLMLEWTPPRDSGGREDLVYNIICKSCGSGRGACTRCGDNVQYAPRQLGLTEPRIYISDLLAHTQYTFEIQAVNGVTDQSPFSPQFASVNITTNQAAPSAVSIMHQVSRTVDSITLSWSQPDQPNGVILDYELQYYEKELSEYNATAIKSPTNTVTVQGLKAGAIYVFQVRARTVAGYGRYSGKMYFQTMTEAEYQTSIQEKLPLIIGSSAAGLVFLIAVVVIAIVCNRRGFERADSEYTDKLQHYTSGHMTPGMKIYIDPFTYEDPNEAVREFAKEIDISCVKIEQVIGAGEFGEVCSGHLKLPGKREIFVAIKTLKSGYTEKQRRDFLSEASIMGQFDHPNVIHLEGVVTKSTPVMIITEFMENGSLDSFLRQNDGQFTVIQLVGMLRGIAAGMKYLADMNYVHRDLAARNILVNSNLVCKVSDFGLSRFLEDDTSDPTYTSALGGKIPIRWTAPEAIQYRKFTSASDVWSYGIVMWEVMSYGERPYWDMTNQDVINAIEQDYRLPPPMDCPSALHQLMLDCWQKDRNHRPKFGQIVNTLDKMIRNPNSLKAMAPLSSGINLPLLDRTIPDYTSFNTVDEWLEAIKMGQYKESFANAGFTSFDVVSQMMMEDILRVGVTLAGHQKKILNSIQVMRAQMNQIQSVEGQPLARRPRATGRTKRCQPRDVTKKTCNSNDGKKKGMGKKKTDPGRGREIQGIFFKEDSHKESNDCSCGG
# EXPERIMENT: phosphorylation enrichment, bacterial display (enrichment ratio); higher = better substrate or ligand; peptides without Tyr show the background
The following sequences are listed with their measured phosphorylation enrichment values.
Give the value as a plain number.

| SEQUENCE_CHAIN | ASSAY_SYSTEM | phosphorylation enrichment |
| --- | --- | --- |
| VLRQVYVDFEG [KMT2B_Y1707_R1705Q] | EPHB2 (UniProt P29323) | 0.722 |
| CTTIHYNYMCT [TP53_Y234_N239T] | EPHB2 (UniProt P29323) | 1.02 |

## Input Field request: phosphorylation enrichment | item: EVDETYVPKKF [ALB_Y521_E525K]
## Output 0.372

----------
# System: c-Abl (mouse)
# EXPERIMENT: phosphorylation enrichment, bacterial display (enrichment ratio); higher = better substrate or ligand; peptides without Tyr show the background
Classify on phosphorylation enrichment using bin A = under 0.6, bin B = from 0.6 up to 0.8, bin C = 0.8 and over

| SEQUENCE_CHAIN | ASSAY_SYSTEM | ASSIGNED_CATEGORY |
| --- | --- | --- |
| SENYTYIWWLN [PSG4_Y271_K267E] | c-Abl (mouse) | bin C |
| SVVVPYEPREV [TP53_Y220_P223R] | c-Abl (mouse) | bin B |
| VEFAKYGSLRG [RET_Y809_YF] | c-Abl (mouse) | bin B |

## Input Hi there! Could you help me figure out the category for SRPTQYSSFSC [SPEM2_Y104] please?
## Output bin B

## Input Hi there! Could you help me figure out the category for SDGHEYIYVDP [PDGFRB_Y579] please?
## Output bin C

## Input Hi there! Could you help me figure out the category for HSQEDYFECFQ [ZIM2_Y411] please?
## Output bin C

## Input Hi there! Could you help me figure out the category for EYHRLYEEYTR [PIK3R1_Y467_D464H] please?
## Output bin B

## Input Hi there! Could you help me figure out the category for LLKKMYLMLDN [STAT1_Y203] please?
## Output bin B

## Input Hi there! Could you help me figure out the category for NTGLDYIKFTW [HRH1_Y386] please?
## Output bin C

## Input Hi there! Could you help me figure out the category for RRIHSYRSHLW [VHL_Y112_G114S] please?
## Output bin A

## Input Hi there! Could you help me figure out the category for SNYRAYATEPH [TNNI3_Y29] please?
## Output bin A

## Input Hi there! Could you help me figure out the category for GLRFGYGVLGG [KRTAP20-2_Y15_YF] please?
## Output bin A

## Input Hi there! Could you help me figure out the category for RSSGSYGGGGQ [HNRNPA1_Y341_P340S] please?
## Output bin A

## Input Hi there! Could you help me figure out the category for VTSLKYSTSPY [BRIP1_Y916] please?
## Output bin A

## Input Hi there! Could you help me figure out the category for HKDNNYVSMWF [PAPOLG_Y432] please?
## Output bin B

## Input Hi there! Could you help me figure out the category for IIRYNYLLDVL [FGFR4_Y237_S232I] please?
## Output bin C

## Input Hi there! Could you help me figure out the category for SVTCTYSPALY [TP53_Y126_N131Y] please?
## Output bin C

## Input Hi there! Could you help me figure out the category for EESREYDRLYE [PIK3R1_Y463_K459E] please?
## Output bin C

## Input Hi there! Could you help me figure out the category for TLPAFYMGNFS [GLB1_Y552] please?
## Output bin B

## Input Hi there! Could you help me figure out the category for PDSVDYRKKGF [CTSK_Y121_YF] please?
## Output bin A

## Input Hi there! Could you help me figure out the category for VDTAMYATMQR [TPO_Y55] please?
## Output bin B

## Input Hi there! Could you help me figure out the category for HNLFSYPTKHE [MYO3A_Y1396_YF] please?
## Output bin B

----------
# ASSAY_SYSTEM: Hck (UniProt P08631)
# Sequence (P08631 whole entry, looked up): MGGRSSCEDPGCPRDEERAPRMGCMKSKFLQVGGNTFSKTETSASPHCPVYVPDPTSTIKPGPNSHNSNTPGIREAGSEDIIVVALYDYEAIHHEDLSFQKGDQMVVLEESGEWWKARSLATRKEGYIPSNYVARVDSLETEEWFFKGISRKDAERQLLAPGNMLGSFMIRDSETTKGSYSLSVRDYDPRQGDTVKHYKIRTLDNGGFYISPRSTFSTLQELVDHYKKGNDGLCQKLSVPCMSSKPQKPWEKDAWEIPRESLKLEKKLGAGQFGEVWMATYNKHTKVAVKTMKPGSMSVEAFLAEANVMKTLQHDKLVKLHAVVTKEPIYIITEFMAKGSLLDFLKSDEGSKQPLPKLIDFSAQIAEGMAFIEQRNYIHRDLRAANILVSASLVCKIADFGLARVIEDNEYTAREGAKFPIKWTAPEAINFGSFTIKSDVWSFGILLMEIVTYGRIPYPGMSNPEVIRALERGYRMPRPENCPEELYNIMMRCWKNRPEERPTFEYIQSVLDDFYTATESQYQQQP
# EXPERIMENT: phosphorylation enrichment, bacterial display (enrichment ratio); higher = better substrate or ligand; peptides without Tyr show the background
The following sequences are listed with their measured phosphorylation enrichment values.
Give the value as a plain number.

Examples from the recorded data:
| SEQUENCE_CHAIN | ASSAY_SYSTEM | METRIC | VALUE_REPORTED |
| --- | --- | --- | --- |
| IETGRYEILTE | Hck (UniProt P08631) | phosphorylation enrichment | 0.487 |
| KSLSQYLEMDK [CAGE1_Y438_V435L] | Hck (UniProt P08631) | phosphorylation enrichment | 0.415 |
| TSYSGYRYHRH [NKAPL_Y94] | Hck (UniProt P08631) | phosphorylation enrichment | 0.628 |
| PLGKDYRKVEG [MAP1A_Y1909_A1912V] | Hck (UniProt P08631) | phosphorylation enrichment | 0.513 |
| VKMLPYTEVTR [GDI1_Y93_L92P] | Hck (UniProt P08631) | phosphorylation enrichment | 0.45 |

## Input Field request: phosphorylation enrichment | item: YLENYYDLEKD [MMP3_Y42_K45E]
## Output 1.63

## Input Field request: phosphorylation enrichment | item: ETLLFYGFRRS [POR_Y564_C566Y_YF]
## Output 0.544

## Input Field request: phosphorylation enrichment | item: HRGHLYLAIEF [TEK_Y899_Y897H_YF]
## Output 1.5

## Input Field request: phosphorylation enrichment | item: TAPYNYSYIFK [RAB14_Y8]
## Output 1.14

## Input Field request: phosphorylation enrichment | item: TVEDHDYEGGI [TKT_Y563_Y563D]
## Output 0.5

## Input Field request: phosphorylation enrichment | item: HSQEDYFECFQ [ZIM2_Y411]
## Output 0.623

## Input Field request: phosphorylation enrichment | item: EDDIIYTQDFT [STK11_Y362]
## Output 0.742

## Input Field request: phosphorylation enrichment | item: RSSPVYVGRVV [TGM2_Y219]
## Output 2.22

## Input Field request: phosphorylation enrichment | item: ENQEIYQKAFD [KPNA1_Y493]
## Output 1.2

## Input Field request: phosphorylation enrichment | item: LGIDRYHAIVY [NPSR1_Y147_S143G]
## Output 0.683

## Input Field request: phosphorylation enrichment | item: DENWFYTRAAS [RPS19_Y54]
## Output 0.382

## Input Field request: phosphorylation enrichment | item: GKTQQYDCKWF [BCR_Y751_YF]
## Output 0.425

## Input Field request: phosphorylation enrichment | item: TRVMEYISCLD [CLTCL1_Y1043_R1046C]
## Output 0.647

## Input Field request: phosphorylation enrichment | item: RALLNYIASKY [GSTA3_Y74_I71L]
## Output 0.553
